Test system: Oryctolagus sp.
Details: acute; dermal
Below: a set of entries, each annotated with reported LD50.

Previously resolved entries follow.
compound=C=CCO reported_value="89 mg/kg"
compound="CCCCCCCCCCCCCOC(=O)CCCCC(=O)OCCCCCCCCCCCCC [Bis(tridecyl) adipate]" reported_value="> 2000 mg/kg"
compound="O=c1nc([O-])n(Cl)c(=O)n1Cl.[Na+] [Sodium dichloroisocyanurate]" reported_value="> 2000 mg/kg"
compound=CC(C)(C)c1cc(CCC(=O)OCC(COC(=O)CCc2cc(C(C)(C)C)c(O)c(C(C)(C)C)c2)(COC(=O)CCc2cc(C(C)(C)C)c(O)c(C(C)(C)C)c2)COC(=O)CCc2cc(C(C)(C)C)c(O)c(C(C)(C)C)c2)cc(C(C)(C)C)c1O reported_value="> 3160 mg/kg"
compound="CCCCC(CC)C(=O)O (configuration not stated)" reported_value="1260 mg/kg"
compound=FC(F)(F)c1ccc(Cl)c(Cl)c1 reported_value="> 5000 mg/kg"

Moving on to the next compound.
q: Look up LD50 for this compound: CC(C)CCCCCCOC(=O)CCCCC(=O)OCCCCCCC(C)C [Diisononyl adipate]
a: > 3160 mg/kg
